Assay method text: Evaluation of stability in plasma
Assay type: in vitro ADME
Test settings: human plasma, 37° C., read-out: T½
Catalogue of half-life at 2 μM values
Quick note: give the figure in s, leave out the unit.

Memo: CC(=N)N1CCC(Oc2ccc(C(=O)OC[C@@H]3CCCN3c3cccc(C(=N)N)c3)cc2)CC1 [compound of Ex. 24] , reported half-life at 2 μM: 30

Please fill in: half-life at 2 μM reported for N=C(N)c1cccc(N2CCC[C@@H]2COC(=O)c2ccc(C(=N)N3CCCC3)cc2)c1 [compound of Ex. 23] = 12

---

System: activated factor IIa (thrombin) (Homo sapiens, UniProt P00734)
Assay method text: Measurement of inhibitory activity against activated factor II (chromogenic substrate S-2238)
Assay type: biochemical
Test settings: 0.125 U/ml thrombin, 0.1 mM S-2238, absorbance 405 nm; read-out: FIIa (pIC50) (converted)
Mark y only when IC50 stays strictly below 30 µM. Values equal to the cut-off are n.

Before answering, review these 10 worked examples.
molecule="C[C@H](C(=O)Oc1ccc(C(=N)N2CCCC2)cc1)N(C)c1cccc(C(=N)N)c1 [compound of Ex. 5]" label=n
molecule="COc1cc(C(=N)N2CCCC2)ccc1OC(=O)[C@H](C)N(C)c1cccc(C(=N)N)c1 [compound of Ex. 36]" label=y
molecule="N=C(N)c1cccc(N2CCC[C@H]2COC(=O)c2ccc(C(=N)N3CCCC3)cc2)c1 [compound of Ex. 22]" label=n
molecule="CC(=N)N1CCC(Oc2ccc(OC(=O)[C@@H](COC(C)(C)C)N(C)c3cccc(C(=N)N)c3)cc2)CC1 [compound of Ex. 40]" label=n
molecule="N=C(N)c1cccc(N2CCCC[C@@H]2C(=O)Oc2ccc(C(=N)N3CCCC3)cc2)c1 [compound of Ex. 18]" label=y
molecule="C[C@@H](C(=O)Oc1ccc(C(=N)N2CCCC2)cc1)N(C)c1cccc(C(=N)N)c1 [compound of Ex. 4]" label=n
molecule="N=C(N)c1cccc(N2CCC[C@@H]2C(=O)Oc2ccc(C(=N)N3CCCC3)cc2)c1 [compound of Ex. 9]" label=y
molecule="N=C(N)c1cccc(N2CCCC[C@H]2C(=O)Oc2ccc(C(=N)N3CCCC3)cc2)c1 [compound of Ex. 16]" label=n
molecule="CCC[C@H](C(=O)Oc1ccc(OC2CCN(C(C)=N)CC2)cc1)N(C)c1cccc(C(=N)N)c1 [compound of Ex. 44]" label=y
molecule="CC(=N)N1CCC(Oc2ccc(OC(=O)[C@H]3CCCN3c3cccc(C(=N)N)c3)cc2)CC1 [compound of Ex. 11]" label=y

Challenge: Would you kindly verify if IC50 of CC(C)C[C@@H](C(=O)Oc1ccc(C(=N)N2CCCC2)cc1)N(C)c1cccc(C(=N)N)c1 [compound of Ex. 29] is strictly less than 30 µM?
Response given: y

---

System: FXa (Homo sapiens, UniProt P00742)
Sequence (P00742 235-488 limits assumed): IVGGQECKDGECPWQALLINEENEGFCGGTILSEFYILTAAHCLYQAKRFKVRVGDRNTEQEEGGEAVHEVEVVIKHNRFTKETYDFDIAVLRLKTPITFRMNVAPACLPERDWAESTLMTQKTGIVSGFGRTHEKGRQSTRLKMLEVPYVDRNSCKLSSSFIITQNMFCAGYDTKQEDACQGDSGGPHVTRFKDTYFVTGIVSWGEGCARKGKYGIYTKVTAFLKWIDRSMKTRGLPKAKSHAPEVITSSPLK
Sequence (P00742 41-179 partner limits assumed): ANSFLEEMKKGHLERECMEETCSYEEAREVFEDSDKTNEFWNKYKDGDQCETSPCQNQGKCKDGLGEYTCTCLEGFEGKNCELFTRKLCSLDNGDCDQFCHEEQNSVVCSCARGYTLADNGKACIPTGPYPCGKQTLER
Assay method text: Measurement of inhibitory activity against activated factor X (chromogenic substrate S-2222)
Type: biochemical
Test settings: 0.015 U/ml FXa, 0.2 mM S-2222, absorbance 405 nm; read-out: FXa (pIC50) (converted)
Parameter: IC50. Scope: all listed entries.
Output spec: scalar in nM, unitless text.

Recorded IC50, per entry:
compound_structure=N=C(N)c1cccc(N2CCC[C@@H]2C(=O)Oc2ccc(C(=N)N3CCCC3)cc2)c1 measured_metric=IC50 quantitative_readout=20
compound_structure=CC(=N)N1CCC(Oc2ccc(OC(=O)[C@H](C)N(C)c3cccc(C(=N)N)c3)cc2)CC1 measured_metric=IC50 quantitative_readout=14.5
compound_structure=C[C@H](C(=O)Oc1ccc(C(=N)N2CCCC2)cc1)N(C)c1cccc(C(=N)N)c1 measured_metric=IC50 quantitative_readout=20

Next molecule, please.
Kindly note: FXa (Homo sapiens, UniProt P00742), `N=C(N)c1cccc(N2CCCC[C@H]2C(=O)Oc2ccc(C(=N)N3CCCC3)cc2)c1` , IC50 value reported: 15.1
